Cited source for all entries: paper PMC5419745

# measured on: 1R CID
# test: ITC; iTC200, 25°C, 20 mM sodium phosphate, pH 7.4, 150 mM NaCl; both partners dialysed against the same buffer
binders and their reported Kd
metric: Kd (nM)

INSERT INTO measurements (binder, metric, result_number) VALUES
  ('GSISPSALQDLLRTLKSPSSPQQQQQVLNILKSNPQLMAAFIKQRTAKYV (domain or fragment, human, Gly-Ser left at the N-terminus from the expression construct; NCBD domain of human CREBBP; pRSET vector; also called human CREBBP NCBD) [Hsa CREBBP NCBD]', 'Kd', 380),
  ('IPPSALQDLLRTLRSPSSPQQQQQVLNILKSNPQLMAAFIKQRAARYQ (domain or fragment, modifications not checked) [1R/2R NCBD N2065S K2107R]', 'Kd', 170),
  ('IPPSALQDLLRTLRSPSSPQQQQQVLNILKSNPQLMAAFIKQRAAKYQ (domain or fragment, modifications not checked) [1R/2R NCBD N2065S]', 'Kd', 130),
  ('IPPNALQDLLRTLRSPSSPQQQQQVLNILKSNPQLMAAFIKQRAAKYQ (domain or fragment, modifications not checked) [1R/2R NCBD]', 'Kd', 200);
